Effect on coronary blood flow for assorted molecules
# System: coronary artery blood flow
# assayText: Effect on coronary flow (coronary artery blood flow in anesthetized dogs)
# Assay type: in vivo, mongrel dogs
# experimentalConditions: dosage 100 μg into coronary artery; relative to flow increase at 3 μg nifedipine
Kindly provide the numeric value in % only, without the unit symbol.

The examples below pair each entry with its known result.
{"columns": ["molecule", "Effect on coronary blood flow (%)"],
 "data": [
  ["CCCCCCc1cc2c(s1)-n1c(C)nnc1CN=C2c1ccccc1C [Example 58]", 107],
  ["CCCCCCc1cc2c(s1)-n1c(C)nnc1CN=C2c1cc(OC)c(OC)c(OC)c1 [Example 67]", 86],
  ["CCCCCCc1cc2c(s1)-n1c(C)nnc1CN=C2c1ccc(C)cc1 [Example 61]", 69],
  ["CCCCCCc1cc2c(s1)-n1c(C)nnc1C(C)N=C2c1ccccc1Cl (centres unmarked) [Example 74]", 57]
]}

// Effect on coronary blood flow value for CCCCCCc1cc2c(s1)-n1c(C)nnc1C(C)N=C2c1ccccc1C (centres unmarked) [Example 68] : 63

###

Here we list compounds with their recorded pIC50 when tested on calmodulin (bovine encephalon) (Bos taurus).
// returns pIC50 (minus log10 of molar concentration), number only

{"columns": ["compound", "recordedMeasurement"],
 "data": [
  ["CCCCCCc1cc2c(s1)-n1c(C)nnc1C(C)N=C2c1ccccc1Cl (centres unmarked)", 5.92]
]}

// returns pIC50 for CCCCCCc1cc2c(s1)-n1c(C)nnc1C(C)N=C2c1ccccc1C (centres unmarked) with calmodulin (bovine encephalon) (Bos taurus); value = 5.96

###

pIC50 for assorted compounds
# experimentalSystem: calcium/calmodulin dependent phosphodiesterase
# assayText: Effect on calcium/calmodulin dependent phosphodiesterase
# experimentalConditions: [3H]-cAMP, pH 8.0, 37° C., 20 minutes; read-out: Inhibitory action on calcium/calmodulin dependent phosphodiesterase IC50
# Description: The experiment was carried out according to the method of Thompson et al. described in Advances in Cyclic Nucleotide Research, Vol. 10, p. 69 (1979). […] After centrifuging, the radioactivity of the supernatant was measured by a liquid scintillation counter. […]
// returns pIC50 (minus log10 of molar concentration), number only

{"columns": ["compound", "recordedMeasurement"],
 "data": [
  ["CCCCCCc1cc2c(s1)-n1c(C)nnc1CN=C2c1cccc(C)c1", 4.96],
  ["CCCCCCCCc1cc2c(s1)-n1c(C)nnc1CN=C2c1ccccc1Cl", 4.96],
  ["CCCCCCc1cc2c(s1)-n1c(C)nnc1CN=C2c1cc(OC)c(OC)c(OC)c1", 5.15],
  ["CCOC(=O)C1=C[C@]2(CC)CCCN3CCc4c(n1c1ccccc41)[C@@H]32 [vinpocetine, reference compound]", 4.06]
]}

// returns pIC50 for CCCCCCc1cc2c(s1)-n1c(C)nnc1CN=C2c1cc(C)ccc1C with calcium/calmodulin dependent phosphodiesterase; value = 4.70

###

# System: coronary artery blood flow
# assayText: Effect on coronary flow (coronary artery blood flow in anesthetized dogs)
# Format: in vivo, mongrel dogs
# experimentalConditions: dosage 30 μg into coronary artery; relative to flow increase at 3 μg nifedipine
quantity: Effect on coronary blood flow (%)
Kindly provide the numeric value in % only, without the unit symbol.

{"columns": ["molecule", "experimentalSystem", "Effect on coronary blood flow / %"],
 "data": [
  ["CCCCCCc1cc2c(s1)-n1c(C)nnc1CN=C2c1ccccc1C [Example 58]", "coronary artery blood flow", 63],
  ["CCCCCCc1cc2c(s1)-n1c(C)nnc1CN=C2c1ccc(C)cc1 [Example 61]", "coronary artery blood flow", 55]
]}

// Effect on coronary blood flow value for CCCCCCc1cc2c(s1)-n1c(C)nnc1C(C)N=C2c1ccccc1Cl (centres unmarked) [Example 74] : 16

// Effect on coronary blood flow value for CCCCCCc1cc2c(s1)-n1c(C)nnc1C(C)N=C2c1ccccc1C (centres unmarked) [Example 68] : 33

// Effect on coronary blood flow value for CCCCCCc1cc2c(s1)-n1c(C)nnc1CN=C2c1cc(OC)c(OC)c(OC)c1 [Example 67] : 43
